biological target: Melanocortin receptor 5 (Homo sapiens); assay: Displacement of [125I]NDP-MSH from human recombinant MC5 receptor expressed in Sf9 cells
Sequence (P33032 whole entry): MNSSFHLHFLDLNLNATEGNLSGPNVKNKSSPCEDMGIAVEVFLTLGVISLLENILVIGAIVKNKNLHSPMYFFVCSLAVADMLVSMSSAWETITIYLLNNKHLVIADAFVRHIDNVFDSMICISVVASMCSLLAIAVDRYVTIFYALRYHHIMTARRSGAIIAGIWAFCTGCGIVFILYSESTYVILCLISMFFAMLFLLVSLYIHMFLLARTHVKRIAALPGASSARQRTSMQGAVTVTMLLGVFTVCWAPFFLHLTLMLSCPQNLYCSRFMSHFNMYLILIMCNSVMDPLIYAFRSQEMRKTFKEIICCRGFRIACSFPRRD
Simple rule here: Ki less than 20 µM is T, otherwise F.

# input Quick check: does "N[C@@H]1CCCC[C@H]1N(C/C=C/c1ccccc1)C(=O)CCCc1c[nH]c2ccccc12" have Ki under 20 µM?
# output F

# input Quick check: does "N=C(N)NCCN(Cc1ccc2ccccc2c1)C(=O)CCCc1c[nH]c2ccccc12" have Ki under 20 µM?
# output T

# input Quick check: does N#Cc1ccc(CN(C(=O)CCCc2c[nH]c3ccccc23)C2CCC(CC3CCC(N)CC3)CC2)cc1 (stereo in doubt; form 1) have Ki under 20 µM?
# output T

# input Quick check: does CC(c1ccc2ccccc2c1)N(CCN)C(=O)Cc1c[nH]c2ccccc12 (stereo not drawn) have Ki under 20 µM?
# output T

# input Quick check: does NC1CCC(CC2CCC(N(Cc3ccccn3)C(=O)CCCc3c[nH]c4ccccc34)CC2)CC1 (stereo not drawn) have Ki under 20 µM?
# output F

# input Quick check: does NCCCN(C(=O)c1cc2cc(OCc3ccccc3)ccc2[nH]1)C1CCc2ccccc2C1 (stereo not drawn) have Ki under 20 µM?
# output F

# input Quick check: does NC1CCC(CC2CCC(N(Cc3ccccc3)C(=O)CCCc3c[nH]c4ccccc34)CC2)CC1 (stereo in doubt) have Ki under 20 µM?
# output F

# input Quick check: does NC1CCCC(NC(=O)NC2CCCC(N(C/C(Cl)=C/c3ccccc3)C(=O)CCCc3c[nH]c4ccccc34)C2)C1 (stereo not drawn) have Ki under 20 µM?
# output T

---

molecular target: Melanocortin receptor 5 (Homo sapiens); assay: Displacement of [125I]NDP-MSH from human recombinant MC5 receptor expressed in Sf9 cells
pKi: −log10 of the molar value.
Criterion: pKi meeting or surpassing 5. Met: T. Not met: F.

# input I'd appreciate it if you could say whether "NCCCN(C/C(Cl)=C/c1ccccc1)C(=O)CCCc1c[nH]c2ccccc12" has pKi at least equal to 5.
# output F

# input I'd appreciate it if you could say whether "NCCCCCN(C/C(Cl)=C\c1ccccc1)C(=O)CCCc1c[nH]c2ccccc12" has pKi at least equal to 5.
# output F

# input I'd appreciate it if you could say whether C=C(Br)CN(C(=O)CCCc1c[nH]c2ccccc12)C1CCC(CC2CCC(N)CC2)CC1 (stereo in doubt; form 1) has pKi at least equal to 5.
# output T

# input I'd appreciate it if you could say whether "C/C(=C\c1ccccc1)CN(CCCN)C(=O)Cc1c[nH]c2ccccc12" has pKi at least equal to 5.
# output F

# input I'd appreciate it if you could say whether "NCCN(Cc1ccc2ccccc2c1)C(=O)Cc1c[nH]c2ccccc12" has pKi at least equal to 5.
# output F

# input I'd appreciate it if you could say whether COC(=O)c1ccc(CN(C(=O)CCCc2c(Cc3ccc(O)cc3)[nH]c3ccccc23)C2CCC(CC3CCC(N)CC3)CC2)cc1 (stereo not drawn) has pKi at least equal to 5.
# output T

# input I'd appreciate it if you could say whether N=C(N)NC1CCC(CC2CCC(N(C/C(Cl)=C/c3ccccc3)C(=O)CCCc3c[nH]c4ccccc34)CC2)CC1 (stereo in doubt; form 2) has pKi at least equal to 5.
# output F

# input I'd appreciate it if you could say whether "NCCCCN(C/C(Cl)=C/c1ccccc1)C(=O)CCCc1c[nH]c2ccccc12" has pKi at least equal to 5.
# output F

# input I'd appreciate it if you could say whether "N=C(N)NCCCCN(Cc1ccc2ccccc2c1)C(=O)Cc1c[nH]c2ccccc12" has pKi at least equal to 5.
# output F

# input I'd appreciate it if you could say whether NC1CCC(CC2CCC(N(C/C(Cl)=C/c3ccccc3)C(=O)CCCc3c[nH]c4ccccc34)CC2)CC1 (stereo in doubt; form 1) has pKi at least equal to 5.
# output F

# input I'd appreciate it if you could say whether "NCCCCCN(Cc1ccc2ccccc2c1)C(=O)Cc1c[nH]c2ccccc12" has pKi at least equal to 5.
# output T

# input I'd appreciate it if you could say whether CC1CC(CC2CCC(N(Cc3ccccc3)C(=O)CCCc3c[nH]c4ccccc34)C(C)C2)CCC1N (stereo in doubt; form 1) has pKi at least equal to 5.
# output T

# input I'd appreciate it if you could say whether "N[C@H]1CC[C@H](N(Cc2ccccc2)C(=O)CCCc2c[nH]c3ccccc23)CC1" has pKi at least equal to 5.
# output F

# input I'd appreciate it if you could say whether "NCCCCCN(C/C=C\c1ccccc1)C(=O)CCc1c(Cc2ccc(O)cc2)[nH]c2ccccc12" has pKi at least equal to 5.
# output T

# input I'd appreciate it if you could say whether NC1CCC(CC2CCC(N(C/C(Cl)=C/c3ccccc3)C(=O)COc3ccc4ccccc4c3)CC2)CC1 (stereo in doubt; 10b-36-14) has pKi at least equal to 5.
# output T

# input I'd appreciate it if you could say whether N=C(N)NC1CCC(CC2CCC(N(Cc3ccccc3)C(=O)CCCc3c[nH]c4ccccc34)CC2)CC1 (stereo not drawn) has pKi at least equal to 5.
# output T

# input I'd appreciate it if you could say whether CC1CC(CC2CCC(N(Cc3ccccc3)C(=O)CCCc3c[nH]c4ccccc34)C(C)C2)CCC1N (stereo in doubt; form 5) has pKi at least equal to 5.
# output T

# input I'd appreciate it if you could say whether "NCCCCCN(Cc1ccccc1)C(=O)[C@H](N)Cc1ccc(-c2ccccc2)cc1" has pKi at least equal to 5.
# output F

# input I'd appreciate it if you could say whether "N=C(N)NCCN(Cc1ccc2ccccc2c1)C(=O)Cc1c[nH]c2ccccc12" has pKi at least equal to 5.
# output F

# input I'd appreciate it if you could say whether "NCCN(CCCc1ccccc1)C(=O)CCc1c[nH]c2ccccc12" has pKi at least equal to 5.
# output F

# input I'd appreciate it if you could say whether "NCCCN(C/C=C/c1ccccc1)C(=O)C(=O)c1c[nH]c2ccccc12" has pKi at least equal to 5.
# output T

# input I'd appreciate it if you could say whether "NCc1cccc(CN(Cc2ccc3ccccc3c2)C(=O)CCCc2c[nH]c3ccccc23)c1" has pKi at least equal to 5.
# output T

# input I'd appreciate it if you could say whether "N=C(N)NCCCN(Cc1ccc2ccccc2c1)C(=O)Cc1c[nH]c2ccccc12" has pKi at least equal to 5.
# output F

# input I'd appreciate it if you could say whether NC1CCC(CC2CCC(N(C/C(Cl)=C/c3ccccc3)C(=O)COc3ccc4ccccc4c3)CC2)CC1 (stereo in doubt; form 5) has pKi at least equal to 5.
# output T

Ref: ChEMBL document CHEMBL1149662
